Reported SPOT peptide array binding signal intensity values are given for each entry in this list.
Target: SpRvs167
Assay: SPOT peptide array binding signal intensity (averaged, normalized) (arbitrary units (background-subtracted, floor 0; scale differs between SH3 domains)); higher = stronger binding of the SH3 domain to the peptide

KRKRRLPVSEDTNTK : 2.83

Prompt line: Entry `IPSRPAPKPPSSASA` has what SPOT peptide array binding signal intensity?
Response line: 202

Prompt line: Entry `KLSRGRYGLPLSSRP` has what SPOT peptide array binding signal intensity?
Response line: 4.33

Prompt line: Entry `FYHRPAPKPPVTKKV` has what SPOT peptide array binding signal intensity?
Response line: 9.33
